- Tested on: NCI-H23 lung
- assay procedure: NCI tumour cell line growth inhibition, 48 h
endpoint name: TGI

Sample records with TGI:
# compound, TGI
measured = [
    ("NC(=O)CNC(=O)[C@@H]1CC(OCCC(=O)O)CN1C(=O)C1CCCN1C(=O)OCc1ccccc1 (stereo partly specified)", "> 100 µM"),
    ("O=C(O)CC(Cc1ccccc1Cl)C(=O)O (stereo unspecified)", "> 100 µM"),
    ("O=C1OCC2=C1C(c1cccc(F)c1)c1cc3c(cc1N2CCO)OCO3 (stereo unspecified)", "> 50 µM"),
    ("[N-]=[N+]=Nc1c(Cc2ccccc2)c(Cl)nc2ccccc12", "> 100 µM"),
    ("O=c1ncccn1[C@@H]1O[C@H](CO)[C@H](O)C1O (stereo partly specified)", "> 100 µM"),
]

Next:
I am curious: what TGI value has been reported for Cc1ccc(Nc2nc3[nH]ccc3c(=O)[nH]2)cc1 ?
> 100 µM

Each recorded value in this set is attributed to PubChem BioAssay (NCI).
